Attribution: patent US20240376198A1

target: T1, cynomolgus NKp46 (cynomolgus monkey, UniProt Q95JB9 22-306); experiment: flow cytometry, HEK293F cells transfected with cyno NKp46
T1 construct: also called cyno NKp46; cynomolgus monkey NKp46
T1 sequence (Q95JB9 22-306 limits assumed): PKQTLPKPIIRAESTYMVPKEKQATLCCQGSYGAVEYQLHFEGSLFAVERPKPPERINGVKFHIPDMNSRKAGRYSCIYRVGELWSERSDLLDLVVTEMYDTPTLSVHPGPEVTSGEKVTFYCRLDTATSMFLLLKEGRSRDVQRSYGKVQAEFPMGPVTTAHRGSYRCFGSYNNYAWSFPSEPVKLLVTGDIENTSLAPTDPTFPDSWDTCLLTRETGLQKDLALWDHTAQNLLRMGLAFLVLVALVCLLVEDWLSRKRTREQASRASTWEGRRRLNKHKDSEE
READOUT KIND: Bmax (MFI)
Write the answer as a number in MFI, unit excluded.

Prompt: Give its Bmax (MFI) value. Item: NKp46-hz5D7v9-Fc* (Fc fusion, VHH-Fc fusion with an IgG1 Fc lacking a hinge (Fc*)) EVQLVESGGGEVQPGGSLRLSCAASGRTFASAAMGWFRQAPGKEREFVAAISRSVDDTYYADSVKGRFTISRDNAKNTVYLQMSSLRAEDTAVYYCAAVVPTYGNNIYVHSAAYNYWGQGTLVTVKPGGGGPSVFLFPPKPKDTLMISRTPEVTCVVVDVSHEDPEVKFNWYVDGVEVHNAKTKPREEQYNSTYRVVSVLTVLHQDWLNGKEYKCKVSNKALPAPIEKTISKAKGQPREPQVYTLPPSRDELTKNQVSLTCLVKGFYPSDIAVEWESNGQPENNYKTTPPVLDSDGSFFLYSKLTVDKSRWQQGNVFSCSVMHEALHNHYTQKSLSLSPG
Completion: 61900
